Data provenance is patent US9365534B2.

Attribute: Emax
target: human CB2 receptor (Homo sapiens (Human), UniProt P34972); assay: cell-based; settings: CHO, read-out: cAMP Assay CB2 Receptor Emax

[
  {
    "MOLECULE": "CCCCCc1cc(OC)c(C2=C[C@H]3CC[C@]2(CO)C3(C)C)c(OC)c1 [HU-970]",
    "UNIT ANNOTATION": "%",
    "Emax": 38
  },
  {
    "MOLECULE": "CCCCCCC(C)(C)c1cc(OC)c(C2=C[C@@H]3CC[C@@]2(C(=O)O)C3(C)C)c(OC)c1 [HU-913]",
    "UNIT ANNOTATION": "%",
    "Emax": 101
  },
  {
    "MOLECULE": "CCCCCCC(C)(C)c1cc(OC)c([C@@H]2C=C(CO)[C@@H]3C[C@H]2C3(C)C)c(OC)c1 [HU-308, reference compound]",
    "UNIT ANNOTATION": "%",
    "Emax": 100
  },
  {
    "MOLECULE": "CCCCCc1cc(OC)c(C2=C[C@H]3CC[C@]2(C(=O)OC)C3(C)C)c(OC)c1 [HU-972]",
    "UNIT ANNOTATION": "%",
    "Emax": 48
  },
  {
    "MOLECULE": "CCCCCCC(C)(C)c1cc(OC)c(C2=C[C@H]3CC[C@]2(C(=O)O)C3(C)C)c(OC)c1 [HU-914]",
    "UNIT ANNOTATION": "%",
    "Emax": 82
  },
  {
    "MOLECULE": "CCCCCCC(C)(C)c1cc(OC)c(C2=C[C@@H]3CC[C@@]2(CO)C3(C)C)c(OC)c1 [HU-909]",
    "UNIT ANNOTATION": "%",
    "Emax": 95
  },
  {
    "MOLECULE": "CCCCCc1cc(OC)c(C2=C[C@@H]3CC[C@@]2(C(=O)OC)C3(C)C)c(OC)c1 [HU-971]",
    "UNIT ANNOTATION": "%",
    "Emax": 31
  },
  {
    "MOLECULE": "CCCCCCC(C)(C)c1cc(OC)c(C2=C[C@H]3CC[C@]2(CO)C3(C)C)c(OC)c1 [HU-910]",
    "UNIT ANNOTATION": "%",
    "Emax": 105
  },
  {
    "MOLECULE": "CCCCCCC(C)(C)c1cc(OC)c(C2C(O)[C@]3(C)CC[C@H]2C3(C)C)c(OC)c1 (stereo partly shown) [HU-928]",
    "UNIT ANNOTATION": "%",
    "Emax": 101
  },
  {
    "MOLECULE": "CCCCCc1cc(OC)c(C2=C[C@@H]3CC[C@@]2(C(=O)O)C3(C)C)c(OC)c1 [HU-973]",
    "UNIT ANNOTATION": "%",
    "Emax": 40
  }
]
